B1: CPEB3 Ribozyme (parent)
chain: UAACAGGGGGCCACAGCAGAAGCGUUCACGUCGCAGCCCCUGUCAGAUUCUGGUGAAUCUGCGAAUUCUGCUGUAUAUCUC

# Variants of: B1
# assay details: self-cleavage, relative activity (ratio to wild type); higher = more cleavage; in vitro, sequencing
// reported self-cleavage per item
Respond using a number only.

1. UAACAGGGGGCCACAGCAGAAGCGUUCACGUCGCAGCCCCUGUCAGAUUCUUGUGAAUCUGCGAAUUCUGCUGUAUAUCCC [G52U U80C] | 1.05
2. UAACAGGGGGCCACAGCAGAAGCGUUCACGUCGCAGCCCCUGUCAGAUUCAGGUGAAUCUGCGUAUUCUGCUGUAUAUCUC [U51A A64U] | 0.46
3. UAACAGAGGGCCACAGCAGAAGCGUUCACGUCGCAGCCCCUGUCAGAUUCUGGUGAAUCUGCGAAUUCUGCUGUAUAGCUC [G7A U78G] | 0.08
4. UAACAGGGGGCCACAGCAGAAGCGUUCACGUCGCUGCACCUGUCAGAUUCUGGUGAAUCUGCGAAUUCUGCUGUAUAUCUC [A35U C38A] | 0.21
5. UAACAGGGGGCCACAGCAGAAGCGUUCACGUCGCAACCCCCGUCAGAUUCUGGUGAAUCUGCGAAUUCUGCUGUAUAUCUC [G36A U41C] | 0.56
6. UAACAGGGGGCCACAGCAGAAGCGUUCACGUCGCAGCCCCUGUCAGAUUCUGGUGAAUCUGCGAAUUCUGCUGUGUAACUC [A75G U78A] | 1.3
7. UAACAGGGGGCCACAGCAGAAGCGUUCACGUCGCAGCCCCUGUCAGAUUCUGGCGAAUCUGGGAAUUCUGCUGUAUAUCUC [U54C C62G] | 0.13
8. UAACAGGGGGCCACAGCAGGAGCGUUCACGUCGCCGCCCCUGUCAGAUUCUGGUGAAUCUGCGAAUUCUGCUGUAUAUCUC [A20G A35C] | 0.65

So, UAACUGCGGGCCACAGCAGAAGCGUUCACGUCGCAGCCCCUGUCAGAUUCUGGUGAAUCUGCGAAUUCUGCUGUAUAUCUC [A5U G7C] ? Its self-cleavage was 0.48

So, UAACAGGGGGCCACAGCAGAAGCGUUCACGUCGCAGCCCCUGUCAAAUUCUGGUGAACCUGCGAAUUCUGCUGUAUAUCUC [G46A U58C] ? Its self-cleavage was 0.38

So, UAACAGGGGGCCACAGCAGAAGCGUUCACGUUGCAGCCCCUGUCAGAUUCUGGUGAAUCUGCGAAUUCUGCUGUGUAUCUC [C32U A75G] ? Its self-cleavage was 0.11

So, UAACAGAGGGCCACAGCAGAAGCGUUCACGUCGCAGCCCCUGUCAGAUUCUGGUGAAUCUGCGGAUUCUGCUGUAUAUCUC [G7A A64G] ? Its self-cleavage was 0.28

So, UAACAGGGGGCCACAGCAGAAGCGUUCACGUCGCAGCUCCUGUCAGAUUCUGGUGAAUCUGCGAAUUCUGCUGUAAAUCUC [C38U U76A] ? Its self-cleavage was 1.16

So, UAACAGGGGGCCACAGCAGAAGCUUUCACGUCGCAGCCCCUGUCAGAUUCUGGUGAAUCUGCGAAUUCUGCCGUAUAUCUC [G24U U72C] ? Its self-cleavage was 0.52
